Literature compilation of IC50 measurements on UniProt:Q15119.

According to the records, this compound C[C@@](O)(C(=O)N1CCC(c2nccn2-c2ccc(Cl)cc2)CC1)C(F)(F)F displays IC50 of 0.3 to 3 µM

According to the records, this compound C[C@@](O)(C(=O)N1CCC(c2ccnn2-c2ccc(OC(F)F)cc2)CC1)C(F)(F)F displays IC50 of 0.3 to 3 µM

According to the records, this compound C[C@H]1CN(C(=O)[C@@](C)(O)C(F)(F)F)Cc2cnn(-c3ccc(F)cn3)c21 displays IC50 of 3 to 50 µM

According to the records, this compound C[C@@](O)(C(=O)N1CCC(c2ccnn2CC(F)(F)F)CC1)C(F)(F)F displays IC50 of 3 to 50 µM

According to the records, this compound C[C@H]1CN(C(=O)[C@@](C)(O)C(F)(F)F)CC[C@H]1N(C)C(=O)c1ncc(F)cc1F displays IC50 of 2.4 µM

According to the records, this compound COc1ccc(-n2nccc2C2CCN(C(=O)[C@@](C)(O)C(F)(F)F)CC2)cc1 displays IC50 of < 0.3 µM

According to the records, this compound C[C@@H]1CN(C(=O)[C@@](C)(O)C(F)(F)F)CC[C@@H]1c1ccnn1-c1ccc(C#N)cc1 displays IC50 of < 0.3 µM

According to the records, this compound C[C@H]1CN(C(=O)[C@@](C)(O)C(F)(F)F)CC[C@H]1N(C)C(=O)c1cnn(C)c1 displays IC50 of 19 µM

According to the records, this compound C[C@@](O)(C(=O)N1CCC(c2cncn2-c2ccc(C(F)(F)F)cc2)CC1)C(F)(F)F displays IC50 of 0.3 to 3 µM

According to the records, this compound CCN(C(=O)c1ccc(C)cc1F)C1CCN(C(=O)[C@@](C)(O)C(F)(F)F)CC1 displays IC50 of 0.41 µM

According to the records, this compound Cc1ccc(C(=O)N(C(C)C)C2CCN(C(=O)[C@@](C)(O)C(F)(F)F)CC2)c(F)c1 displays IC50 of 1.3 µM

According to the records, this compound COc1ccc(-n2nccc2C2CCN(C(=O)C(C)(O)C(F)(F)F)CC2)c(F)c1 (racemic) displays IC50 of < 0.3 µM

According to the records, this compound CC(C)(C)n1nccc1C1CCN(C(=O)[C@@](C)(O)C(F)(F)F)CC1 displays IC50 of 0.3 to 3 µM

According to the records, this compound C[C@@](O)(C(=O)N1CCC(c2ccnn2-c2ccc(C(F)(F)F)cc2Cl)CC1)C(F)(F)F displays IC50 of < 0.3 µM

According to the records, this compound CC(C)(O)CCCOc1cc(-c2cnn(CC(C)(C)O)c2)c2c(c1)[C@@](O)(C(F)(F)F)c1ccccc1-2 displays IC50 of 0.0066 µM

According to the records, this compound COc1ccc(-c2nnc(C3([C@@H]4CCN(C(=O)[C@@](C)(O)C(F)(F)F)C[C@@H]4C)CC3)o2)cc1 displays IC50 of 1.9 µM

According to the records, this compound C[C@H]1CN(C(=O)[C@@](C)(O)C(F)(F)F)Cc2cnn(C(C)(C)C)c21 displays IC50 of 3 to 50 µM

According to the records, this compound Cc1cc(C2CCN(C(=O)[C@@](C)(O)C(F)(F)F)CC2)nn1-c1ccccc1 displays IC50 of 3 to 50 µM

According to the records, this compound C[C@H]1CN(C(=O)[C@@](C)(O)C(F)(F)F)CC[C@H]1N(C)C(=O)c1ccc(F)cn1 displays IC50 of 13 µM

According to the records, this compound C[C@@H]1CN(C(=O)[C@@](C)(O)C(F)(F)F)Cc2cnn(-c3ccccc3F)c21 displays IC50 of < 0.3 µM

According to the records, this compound CN(C(=O)c1ccc(Cl)cc1)C1CCN(C(=O)[C@@](C)(O)C(F)(F)F)CC1 displays IC50 of 0.39 µM

According to the records, this compound C[C@@H]1CN(C(=O)[C@@](C)(O)C(F)(F)F)Cc2cnn(C(C)(C)C)c21 displays IC50 of < 0.3 µM

According to the records, this compound Cc1cccc(-n2nccc2C2CCN(C(=O)[C@@](C)(O)C(F)(F)F)CC2)c1 displays IC50 of 0.3 to 3 µM

According to the records, this compound Cc1ccc(-n2nccc2C2CCN(C(=O)[C@@](C)(O)C(F)(F)F)CC2)c(F)c1 displays IC50 of < 0.3 µM

According to the records, this compound C[C@@](O)(C(=O)N1CCC(n2cnnc2-c2ccc(Cl)cc2)CC1)C(F)(F)F displays IC50 of 0.3 to 3 µM

According to the records, this compound C[C@@](O)(C(=O)N1CCC(n2ccnc2-c2ccccc2)CC1)C(F)(F)F displays IC50 of < 0.3 µM

According to the records, this compound C[C@@H]1CN(C(=O)[C@@](C)(O)C(F)(F)F)CC[C@@H]1c1ccn(-c2ccc(F)cc2)n1 displays IC50 of < 0.3 µM

According to the records, this compound C[C@@H]1CN(C(=O)[C@@](C)(O)C(F)(F)F)CC[C@@H]1N(C)C(=O)c1ccc(F)cc1F displays IC50 of 0.18 µM

According to the records, this compound C[C@H]1CN(C(=O)[C@@](C)(O)C(F)(F)F)CC[C@H]1C1(c2nnc(-c3ccc(F)cc3)[nH]2)CC1 displays IC50 of 2.6 µM

According to the records, this compound C[C@@](O)(C(=O)N1CCC(c2ccnn2-c2ncc(Br)cn2)CC1)C(F)(F)F displays IC50 of 0.3 to 3 µM

According to the records, this compound C[C@@](O)(C(=O)N1CCC(c2ccnn2[C@H]2CC[C@H](O)CC2)CC1)C(F)(F)F displays IC50 of 0.3 to 3 µM
